Reference source: ChEMBL document CHEMBL2346651

- study_target: Substance-K receptor (Homo sapiens)
- assay_explanation: Displacement of [125I]-NKA from NK2R (unknown origin) transfected in CHO cells at 10 uM by gamma counting analysis
- Assay type: cell-based
Residues, ends and D or L forms follow the SMILES beside them.

compound	study_target	u	inhibition
CSCC[C@H](NC(=O)[C@H](CC(C)C)NC(=O)CNC(=O)[C@H](Cc1ccccc1)N(C)C(=O)[C@H](Cc1ccccc1)NC(=O)[C@H](CCC(N)=O)NC(=O)[C@H](CC(=O)O)NC(=O)[C@H](CO)NC(=O)[C@H](CCCCN)NC(=O)[C@@H]1CCCN1C(=O)[C@@H](NC(=O)[C@@H](N)CC(=O)O)C(C)C)C(N)=O (HELM PEPTIDE1{D.V.P.K.S.D.Q.F.[meF].G.L.M.[am]}$$$$V2.0)	Substance-K receptor (Homo sapiens)	%	11
CSCC[C@H](NC(=O)[C@H](CC(C)C)NC(=O)CNC(=O)[C@H](Cc1ccccc1)N(C)C(=O)[C@H](Cc1ccccc1)NC(=O)[C@H](Cc1c[nH]c2ccccc12)NC(=O)[C@H](CC(=O)O)NC(=O)[C@H](Cc1cnc[nH]1)NC(=O)[C@H](CCSC)NC(=O)[C@@H](N)CC(=O)O)C(N)=O (HELM PEPTIDE1{D.M.H.D.W.F.[meF].G.L.M.[am]}$$$$V2.0)	Substance-K receptor (Homo sapiens)	%	79

###

- study_target: Neuromedin-K receptor (Homo sapiens, UniProt P29371)
- Sequence (P29371 whole entry): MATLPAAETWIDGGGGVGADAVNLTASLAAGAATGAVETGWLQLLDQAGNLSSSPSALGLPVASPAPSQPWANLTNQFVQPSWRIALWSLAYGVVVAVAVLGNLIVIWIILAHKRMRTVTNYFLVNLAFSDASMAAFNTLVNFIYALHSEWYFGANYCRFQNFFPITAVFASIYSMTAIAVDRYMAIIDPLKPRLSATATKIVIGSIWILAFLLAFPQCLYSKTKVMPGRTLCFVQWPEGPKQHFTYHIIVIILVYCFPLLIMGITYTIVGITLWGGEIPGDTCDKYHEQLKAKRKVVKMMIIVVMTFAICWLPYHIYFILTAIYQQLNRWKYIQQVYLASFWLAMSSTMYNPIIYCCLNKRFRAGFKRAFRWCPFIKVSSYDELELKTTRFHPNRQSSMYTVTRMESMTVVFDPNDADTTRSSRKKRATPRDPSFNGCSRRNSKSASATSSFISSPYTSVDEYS
- assay_explanation: Agonist activity at NK3R (unknown origin) transfected in CHO cells assessed as calcium influx […]
- Assay type: functional, cell-based
pEC50: −log10 of the molar value.
Item-by-item account of pEC50
observable: pEC50

> print(dat)
                          substance  observable  value.measured
1     H-KPRPDQFYGLM-NH2 [BUFOKININ]       pEC50            7.97
2                H-DVPKSDDFVGLM-NH2       pEC50            9.33
3  H-DTGDKFYGLM-NH2 [SIALOKININ II]       pEC50            7.96

###

- study_target: Substance-K receptor (Homo sapiens) (UniProt P21452)
- Sequence (P21452 whole entry): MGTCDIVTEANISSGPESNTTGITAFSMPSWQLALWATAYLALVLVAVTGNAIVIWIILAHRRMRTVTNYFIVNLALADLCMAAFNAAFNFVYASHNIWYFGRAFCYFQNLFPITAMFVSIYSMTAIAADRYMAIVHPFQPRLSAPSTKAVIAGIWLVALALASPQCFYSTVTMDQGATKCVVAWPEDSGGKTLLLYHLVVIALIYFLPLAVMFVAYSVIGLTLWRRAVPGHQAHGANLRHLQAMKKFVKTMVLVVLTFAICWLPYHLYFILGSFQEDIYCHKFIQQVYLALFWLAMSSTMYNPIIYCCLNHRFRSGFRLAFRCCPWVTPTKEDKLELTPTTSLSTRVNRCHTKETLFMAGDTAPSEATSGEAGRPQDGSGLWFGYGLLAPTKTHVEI
- assay_explanation: Displacement of [125I]-NKA from NK2R (unknown origin) transfected in CHO cells at 10 uM by gamma counting analysis
- Format: cell-based
Residues, ends and D or L forms follow the SMILES beside them.

molecule	limit_qualifier	inhibition, %
CSCC[C@H](NC(=O)[C@H](CC(C)C)NC(=O)CNC(=O)[C@H](Cc1ccccc1)N(C)C(=O)[C@H](Cc1ccccc1)NC(=O)[C@H](CC(N)=O)NC(=O)[C@H](CC(=O)O)NC(=O)[C@H](Cc1cnc[nH]1)NC(=O)[C@H](CCSC)NC(=O)[C@@H](N)CC(=O)O)C(N)=O (HELM PEPTIDE1{D.M.H.D.N.F.[meF].G.L.M.[am]}$$$$V2.0)	=	10
CSCC[C@H](NC(=O)[C@H](CC(C)C)NC(=O)CNC(=O)[C@H](Cc1ccccc1)N(C)C(=O)[C@H](Cc1ccccc1)NC(=O)[C@H](Cc1ccc(O)cc1)NC(=O)[C@H](CC(=O)O)NC(=O)[C@H](Cc1cnc[nH]1)NC(=O)[C@H](CCSC)NC(=O)[C@@H](N)CC(=O)O)C(N)=O (HELM PEPTIDE1{D.M.H.D.Y.F.[meF].G.L.M.[am]}$$$$V2.0)	=	51
CC[C@H](C)[C@H](NC(=O)[C@H](CC(=O)O)NC(=O)[C@H](Cc1cnc[nH]1)NC(=O)[C@H](CCSC)NC(=O)[C@@H](N)CC(=O)O)C(=O)N[C@@H](Cc1ccccc1)C(=O)N(C)[C@@H](Cc1ccccc1)C(=O)NCC(=O)N[C@@H](CC(C)C)C(=O)N[C@@H](CCSC)C(N)=O (HELM PEPTIDE1{D.M.H.D.I.F.[meF].G.L.M.[am]}$$$$V2.0)	=	35
CSCC[C@H](NC(=O)[C@H](CC(C)C)NC(=O)CNC(=O)[C@H](Cc1ccc(O)cc1)NC(=O)[C@H](Cc1ccccc1)NC(=O)[C@H](CCC(=O)O)NC(=O)[C@H](CC(=O)O)NC(=O)[C@@H]1CCCN1C(=O)[C@H](CC(N)=O)NC(=O)[C@@H]1CCCN1C(=O)[C@@H]1CCC(=O)N1)C(N)=O (HELM PEPTIDE1{[Glp].P.N.P.D.E.F.Y.G.L.M.[am]}$$$$V2.0)	<	10
CSCC[C@H](NC(=O)[C@H](CC(C)C)NC(=O)CNC(=O)[C@H](Cc1ccccc1)N(C)C(=O)[C@H](Cc1ccccc1)NC(=O)[C@H](CCCCN)NC(=O)[C@H](CC(=O)O)NC(=O)[C@H](Cc1cnc[nH]1)NC(=O)[C@H](CCSC)NC(=O)[C@@H](N)CC(=O)O)C(N)=O (HELM PEPTIDE1{D.M.H.D.K.F.[meF].G.L.M.[am]}$$$$V2.0)	=	35
CSCC[C@H](NC(=O)[C@H](CC(C)C)NC(=O)CNC(=O)[C@H](Cc1ccccc1)N(C)C(=O)[C@H](Cc1ccccc1)NC(=O)[C@H](Cc1ccccc1)NC(=O)[C@H](CC(=O)O)NC(=O)[C@H](Cc1cnc[nH]1)NC(=O)[C@H](CCSC)NC(=O)[C@@H](N)CC(=O)O)C(N)=O (HELM PEPTIDE1{D.M.H.D.F.F.[meF].G.L.M.[am]}$$$$V2.0)	=	57
CSCC[C@H](NC(=O)[C@H](CC(C)C)NC(=O)CNC(=O)[C@H](Cc1ccccc1)N(C)C(=O)[C@H](Cc1ccccc1)NC(=O)[C@H](CC(=O)O)NC(=O)[C@H](CC(=O)O)NC(=O)[C@H](CCCCN)NC(=O)[C@H](CO)NC(=O)[C@@H]1CCCN1C(=O)[C@@H]1CCC(=O)N1)C(N)=O (HELM PEPTIDE1{[Glp].P.S.K.D.D.F.[meF].G.L.M.[am]}$$$$V2.0)	<	10
CSCC[C@H](NC(=O)[C@H](CC(C)C)NC(=O)CNC(=O)[C@H](Cc1ccccc1)N(C)C(=O)[C@H](Cc1ccccc1)NC(=O)CNC(=O)[C@H](CC(=O)O)NC(=O)[C@H](Cc1cnc[nH]1)NC(=O)[C@H](CCSC)NC(=O)[C@@H](N)CC(=O)O)C(N)=O (HELM PEPTIDE1{D.M.H.D.G.F.[meF].G.L.M.[am]}$$$$V2.0)	=	22
CSCC[C@H](NC(=O)[C@H](CC(C)C)NC(=O)CNC(=O)[C@H](Cc1ccccc1)N(C)C(=O)[C@H](Cc1ccccc1)NC(=O)[C@H](CCSC)NC(=O)[C@H](CC(=O)O)NC(=O)[C@H](Cc1cnc[nH]1)NC(=O)[C@H](CCSC)NC(=O)[C@@H](N)CC(=O)O)C(N)=O (HELM PEPTIDE1{D.M.H.D.M.F.[meF].G.L.M.[am]}$$$$V2.0)	=	41
CSCC[C@H](NC(=O)[C@H](CC(C)C)NC(=O)CNC(=O)[C@H](Cc1ccccc1)N(C)C(=O)[C@H](Cc1ccccc1)NC(=O)[C@H](CC(=O)O)NC(=O)[C@H](CC(=O)O)NC(=O)[C@@H]1CCCN1C(=O)[C@H](CC(N)=O)NC(=O)[C@@H]1CCCN1C(=O)[C@@H]1CCC(=O)N1)C(N)=O (HELM PEPTIDE1{[Glp].P.N.P.D.D.F.[meF].G.L.M.[am]}$$$$V2.0)	<	10
CSCC[C@H](NC(=O)[C@H](CC(C)C)NC(=O)CNC(=O)[C@H](Cc1ccccc1)N(C)C(=O)[C@H](Cc1ccccc1)NC(=O)[C@H](CC(=O)O)NC(=O)[C@H](CC(=O)O)NC(=O)[C@H](CO)NC(=O)[C@H](CCCCN)NC(=O)[C@@H]1CCCN1C(=O)[C@@H](NC(=O)[C@@H](N)CC(=O)O)C(C)C)C(N)=O (HELM PEPTIDE1{D.V.P.K.S.D.D.F.[meF].G.L.M.[am]}$$$$V2.0)	<	10
